# Test system: SK-MEL-2 melanoma
# assayExplanation: NCI tumour cell line growth inhibition, 48 h
Here the recorded TGI is given for each entry.

INSERT INTO measurements (molecule, resultvalue) VALUES
  ('CC1/C(=N\O)CC(c2ccccc2)N(C)C1c1ccccc1 (stereo not given)', '> 100 µM');

Quick check: TGI on SK-MEL-2 melanoma, item C/C=C1\CN(C(=O)OC(C)(C)C)C1C(=O)OC(C)(C)C (stereo not given) ?
> 100 µM

====

Here the recorded TGI is given for each entry.
# System: SF-268 CNS
# assayExplanation: NCI tumour cell line growth inhibition, 48 h

INSERT INTO results (compound, resultvalue) VALUES
  ('O=S(=O)(O)c1cc(O)c(N=Nc2ccc(O)cc2O)c2ccccc12', '> 100 µM'),
  ('CC1/C(=N\O)CC(c2ccccc2)N(C)C1c1ccccc1 (configuration not stated)', '> 100 µM'),
  ('O=C1CC[C@@]2(O)[C@H]3Cc4ccc(-c5ccccc5)c5c4[C@@]2(CCN3CC2CC2)[C@H]1O5', '29.7 µM');

With those in mind, consider the next compound.
Look up TGI: CCCCCCCCCCCCCCC(O)C[N+](C)(CCO)CCO (configuration not stated)
5.16 µM
